# system.tested: human CD40 on HEK293 cells stably transfected with the human CD40 gene (HEK-Blue CD40L cells) (human, UniProt P25942 21-277)
# Sequence (P25942 21-277): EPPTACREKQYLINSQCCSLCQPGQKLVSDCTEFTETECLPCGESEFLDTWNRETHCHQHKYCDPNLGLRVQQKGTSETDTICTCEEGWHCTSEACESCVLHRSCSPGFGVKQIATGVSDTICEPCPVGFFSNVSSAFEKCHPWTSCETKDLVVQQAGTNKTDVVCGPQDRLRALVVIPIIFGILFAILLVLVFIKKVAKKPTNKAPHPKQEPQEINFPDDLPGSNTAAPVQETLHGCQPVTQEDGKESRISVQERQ
# test.protocol: cell-based or functional assay
Entries annotated with measured HEK293-CD40L cells activity assay EC50
Entry rule: numbers only, all in µg/mL.

Incoming: Complete the entry with HEK293-CD40L cells activity assay EC50 for mouse hybridoma anti-human CD40 antibody 14C10 (antibody, V domains shown, Murine hybridoma antibody) VH: QVQVQQSGAELVRPGTSVKVSCKASGYAFTNYLIEWVKQRPGQGLEWIGVINPEFGGTNYNEKFKGKATLTADKSSSTAYMQLSSLTSEDSAVYFCARGGGGFTYWGQGTLVTVSA VL: HIQMTQTTSSLSASLGDRVTISCRASQDISSHLNWYQQKPDGTVKLLISYTSRLHSGVPSRFSGSGSGADYSLTISNLEQEDIATYFCQQGNTLPWTFGGGTKLEIK
Outgoing: 0.0109

Incoming: Specify HEK293-CD40L cells activity assay EC50 for mouse hybridoma anti-human CD40 antibody 9E5 (antibody, V domains shown, Murine hybridoma antibody; also called mouse 9E5) VH: QVQLQQPGADLVKPGASVKMSCKASGYILTTYWITWVKQRPGQGLEWIGDIHPGSGSTKYNEKFKSKATLTVDTSSSTAYMQLTRLSSEDSAVYYCARRDYWGQGTTLTVSS VL: DVLMTQSPLSLPVSLGDQASISCRSSQNIVNSQGNTYLEWYLQKPGESPKLLIYKVTNRFSGVPDRFSGSGSGTDFTLKISRVEAEDLGVYYCFQASLVPWTFGGGTKLEIK and stop.
Outgoing: 0.0171

Incoming: Tell me measured HEK293-CD40L cells activity assay EC50 for mouse hybridoma anti-human CD40 antibody 38B4 (antibody, V domains shown, Murine hybridoma antibody) VH: QVRLKQSGAELVRPGASVKVSCKASGYTFTDYYINWVKQRPGQGLEWIAGIYPGTGNTYYNEKFKGKATLTAERSSSTAYMQLTSLTSEDSAVYFCTRRGLPSLCFDYWGQGTTLTVSS VL: DFQMTQTTSSLSASLGDRVTISCSASQGISNYLNWYQQKPDGTVKLLIYYTSSLHSGVPSRFSGSGSGTDYSLTISNLEPEDIATYYCQQYSKLPPTFGGGTKLEIK please.
Outgoing: 0.0365
